# maps each entry to its IC50
tested on: KB human nasopharyngeal cancer cell; assay: SRB cell proliferation assay, KB; assay type: cell-based; details: 72 h, 3 days

Below, each entry is followed by its recorded IC50 result.
>>> df
                                   compound                                  tgt  test_value
0  O=C1Nc2ccc(OC(F)(F)F)cc2/C1=C1/Nc2ccc(F)cc2C1=NO [Compound 13d]  KB human nasopharyngeal cancer cell      3.8 µM
1  O=C1Nc2ccc([N+](=O)[O-])cc2/C1=C1/Nc2ccc(O)cc2C1=NO [Compound 11b]  KB human nasopharyngeal cancer cell      1.3 µM

Exercise: For the compound O=C1Nc2ccc(F)cc2/C1=C1/Nc2ccc(F)cc2C1=NO [Compound 13c] , what IC50 is on record?
Solution: 13.2 µM

Exercise: Next compound up: O=C1Nc2ccc([N+](=O)[O-])cc2C1=C1Nc2ccc(Br)cc2C1=NO [Compound 2, 5′-Bromo-5-nitro-indirubin-3′-oxime, reference compound]
Solution: 1.16 µM

Exercise: Next compound up: COc1ccc2c(c1)C(=NO)/C(=C1/C(=O)Nc3ccc(F)cc31)N2 [Compound 16b]
Solution: > 20 µM

Exercise: Next compound up: Cc1ccc2c(c1)C(=NO)/C(=C1/C(=O)Nc3ccc(Cl)cc31)N2 [Compound 14a]
Solution: 5.18 µM

---

system: HT1080 human fibro sarcoma cell; assay: SRB cell proliferation assay, HT1080; format: cell-based; conditions: HT-1080, 72 h, 3 days
Label criterion met when IC50 is strictly below 4 µM; otherwise label criterion not met.

These recorded examples may help you get a feel for the data.
                                   compound           category
0  Cc1ccc2c(c1)C(=NO)/C(=C1/C(=O)Nc3ccc(Cl)cc31)N2 [Compound 14a]  criterion not met
1  O=C1Nc2ccc(F)cc2/C1=C1/Nc2ccc(F)cc2C1=NO [Compound 13c]  criterion not met
2  O=C1Nc2ccc([N+](=O)[O-])cc2C1=C1Nc2ccc(Br)cc2C1=NO [Compound 2, 5′-Bromo-5-nitro-indirubin-3′-oxime, reference compound]      criterion met
3  O=C1Nc2ccc(Cl)cc2/C1=C1/Nc2ccc(F)cc2C1=NO [Compound 13a]  criterion not met
4  O=C1Nc2ccc(OC(F)(F)F)cc2/C1=C1/Nc2ccc(O)cc2C1=NO [Compound 11d]      criterion met
5  O=C1Nc2ccc([N+](=O)[O-])cc2/C1=C1/Nc2ccc(F)cc2C1=NO [Compound 13b]      criterion met
6  O=C1Nc2ccc(OC(F)(F)F)cc2/C1=C1/Nc2ccc(Cl)cc2C1=NO [Compound 12d]  criterion not met
7  COc1ccc2c(c1)C(=NO)/C(=C1/C(=O)Nc3ccc([N+](=O)[O-])cc31)N2 [Compound 16a]  criterion not met

Let us examine a further case.
Exercise: Hello, I'm reviewing records and need to know if IC50 of COc1ccc2c(c1)C(=NO)/C(=C1/C(=O)Nc3ccc(F)cc31)N2 [Compound 16b] is below 4 µM. Could you check?
Solution: criterion not met

---

test system: A549 human lung cancer cell; assay: SRB cell proliferation assay, A549; type: cell-based; settings: A549, 72 h, 3 days
# maps each entry to its IC50
The answer is to be given in µM; state only the numeric part.

                                   molecule  test_value
0  O=C1Nc2ccc(Cl)cc2/C1=C1/Nc2ccc(O)cc2C1=NO [Compound 11a]        16.4

Lab note: next molecule to report on.
Exercise: Param readout = IC50; param system = A549 human lung cancer cell; param query = O=C1Nc2ccc([N+](=O)[O-])cc2/C1=C1/Nc2ccc(F)cc2C1=NO [Compound 13b] ; response: value
Solution: 0.57

Origin of the recorded values: patent US8859783B2
